Hey, just so you know, these numbers are from PubChem BioAssay AID504329.

- Experiment notes: H1N1 influenza NS1A inhibitors, functional cell based assay (AID 504329)
- Conditions used: percent inhibition, at 12.5 µM, hits give high values
The campaign covered roughly 340,000 compounds. About 1,000 (0.29%) were called active. Only a sample is shown. Potency and affinity values are given separately.
Value type: inhibition (%)
Give the value, in units of %, as a plain number.

Take a look at these entries with their results.
Compound	inhibition, %
COc1ccccc1Oc1ncnc2c1cnn2-c1ccccc1	-2.97
COc1ccc(C2=C(Nc3ccc(C)cc3)c3ccccc3C2=O)cc1	-3.38
O=C1COc2ccccc2N1Cc1ccc(Cl)cc1	-6.96
O=C(N/N=C\c1c(O)ccc2ccccc12)c1cncc(Br)c1	-2.66
Nc1c(Cl)ncnc1N/N=C/c1ccc(O)cc1	-15.8

# evaluate next
For the compound shown here, COc1ccc(/C=N/Nc2ncnc(Cl)c2N)cc1OC , give the reported inhibition.
-17
